Target entity: hAM1R (human, UniProt Q16602)
Assay notes: cell-based or functional assay
Numbered stars: 1 amine (or outer) side, 2 acyl side, 3 side chain; on linkers, the order of the positions; unused ones are H or OH. Bridge positions count the residues as written; N and C are the ends. Square brackets hold non-standard residues; d marks the D form. Ends that are not written are not given here. * marks the point of attachment. C20 diacid = O=C(O)CCCCCCCCCCCCCCCCCCC(=O)*; γGlu = O=C(O)[C@H](CCC(=O)[*:2])N[*:1]; Hyp = O=C(O)[C@@H]1C[C@@H](O)CN1; Cit = NC(=O)NCCC[C@H](N)C(=O)O
Measurement name: hAM1R EC50 (cAMP) (µM)

Binder: GCRIGTCTVQWLAHQIYQFTDKFKDNVAPRSKISPQT[Hyp]-NH2 (disulfide 2-7 (inferred); ends not checked) [SEQ ID NO: 351]
Measurement name: hAM1R EC50 (cAMP)
Value relation sign: >
Reported measurement: 5

Binder: {C20 diacid-γGlu}-KCNFATCTVQRLAHQIYQFTDKDKDNVAPRTEVGSNGY-NH2 (disulfide 2-7 (inferred); ends not checked) [SEQ ID NO: 370]
Measurement name: hAM1R EC50 (cAMP)
Value relation sign: =
Reported measurement: 0.0103

Binder: GCRTGTCTVQRLAHQIYQFTDKDKDNVAPRTNIGPNGY [SEQ ID NO: 142]
Measurement name: hAM1R EC50 (cAMP)
Value relation sign: =
Reported measurement: 2.98

Binder: GCRTGTCTVQ[Cit]LAHQIYQFTDKDKDNVAPRSKVGPNG[Hyp]-NH2 (disulfide 2-7 (inferred); ends not checked) [SEQ ID NO: 290]
Measurement name: hAM1R EC50 (cAMP)
Value relation sign: >
Reported measurement: 5

Binder: KCNTATCTVQRLAHQIYQTDKDKDNVAPPTNVGSNG[Hyp]-NH2 (disulfide 2-7 (inferred); ends not checked) [SEQ ID NO: 195]
Measurement name: hAM1R EC50 (cAMP)
Value relation sign: >
Reported measurement: 5

Binder: GCRFGTCTVQRLAHQIYQFTDKDKDNVAPRTKVSPQG[Hyp]-NH2 (disulfide 2-7 (inferred); ends not checked) [SEQ ID NO: 132]
Measurement name: hAM1R EC50 (cAMP)
Value relation sign: =
Reported measurement: 2.98

Binder: {C20 diacid-γGlu}-KCNTATCTVQRLADQIYQFTDKDKDNVAPPTNVGSNG[Hyp]-NH2 (disulfide 2-7 (inferred); ends not checked) [SEQ ID NO: 5]
Measurement name: hAM1R EC50 (cAMP)
Value relation sign: >
Reported measurement: 5

Binder: GCRFGTCTVQRLAHQIYQFTDKDKDNVAPRTKIGPNGY [SEQ ID NO: 367]
Measurement name: hAM1R EC50 (cAMP)
Value relation sign: =
Reported measurement: 0.000563

Binder: GCRTGTCTVQ[Cit]LAHQIYQFTDKDKDNVAPRSKIGPNG[Hyp]-NH2 (disulfide 2-7 (inferred); ends not checked) [SEQ ID NO: 299]
Measurement name: hAM1R EC50 (cAMP)
Value relation sign: >
Reported measurement: 5

Binder: KCNFATCTVQRLAHQIYQFTDKDKDNVAPRTKVGSNG[Hyp]-NH2 (disulfide 2-7 (inferred); ends not checked) [SEQ ID NO: 3]
Measurement name: hAM1R EC50 (cAMP)
Value relation sign: =
Reported measurement: 0.124
